The values you see were collected from patent US20250026748A1.

# system name: PolQ ATPase enzyme (1-894) (Homo sapiens (Human))
# assay name: Polθ ATPase enzymatic assay (0.5 nM enzyme concentration), ADP-Glo
# Assay type: biochemical
# condition label: average IC50; 0.5 nM PolQ ATPase enzyme (1-894)
quantity kind: IC50 (nM)

P. COc1cnc(Cl)cc1-c1cn2ncnc2cc1C(=O)Nc1nnc(C#Cc2cc(C)[nH]n2)s1
Q. COc1cnc(C(F)F)cc1-c1cc(-c2ccn(C)c2)ncc1C(=O)Nc1nnc(C#CC2CC2)s1
R. COc1cnc(C(F)F)cc1-c1cc(Cl)ncc1C(=O)Nc1nc(C#N)c(C#CC2CC2)s1
Endpoint returns the given compounds ordered by ascending IC50. Please respond by ranking the labels in the order requested. Q, R, P

###

# system name: PolQ ATPase enzyme (1-894) (Homo sapiens (Human), UniProt O75417)
# Sequence (O75417 1-894): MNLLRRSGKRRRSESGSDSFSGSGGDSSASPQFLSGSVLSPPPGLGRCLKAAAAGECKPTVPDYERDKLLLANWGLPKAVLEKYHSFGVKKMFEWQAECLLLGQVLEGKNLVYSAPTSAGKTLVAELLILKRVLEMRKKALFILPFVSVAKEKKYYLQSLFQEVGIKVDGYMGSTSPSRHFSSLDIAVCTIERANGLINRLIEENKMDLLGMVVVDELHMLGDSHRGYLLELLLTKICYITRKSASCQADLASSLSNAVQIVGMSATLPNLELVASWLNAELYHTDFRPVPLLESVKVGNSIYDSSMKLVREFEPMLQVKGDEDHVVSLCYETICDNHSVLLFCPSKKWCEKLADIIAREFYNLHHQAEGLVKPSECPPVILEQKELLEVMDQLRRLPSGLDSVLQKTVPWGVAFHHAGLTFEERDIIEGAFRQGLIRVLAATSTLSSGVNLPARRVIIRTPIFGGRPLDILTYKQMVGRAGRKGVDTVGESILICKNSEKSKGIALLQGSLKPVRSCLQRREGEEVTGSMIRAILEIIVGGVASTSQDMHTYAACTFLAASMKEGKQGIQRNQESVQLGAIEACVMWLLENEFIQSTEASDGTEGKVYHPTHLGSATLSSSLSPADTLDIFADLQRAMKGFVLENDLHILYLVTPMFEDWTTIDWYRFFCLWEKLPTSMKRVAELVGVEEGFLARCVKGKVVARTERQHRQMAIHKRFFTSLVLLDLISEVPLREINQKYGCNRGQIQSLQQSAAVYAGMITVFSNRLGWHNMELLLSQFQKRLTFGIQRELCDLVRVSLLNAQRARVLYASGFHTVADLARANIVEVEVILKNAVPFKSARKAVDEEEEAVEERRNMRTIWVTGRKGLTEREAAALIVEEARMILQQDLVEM
# assay name: Polθ ATPase enzymatic assay (0.5 nM enzyme concentration), ADP-Glo
# Type: biochemical
# condition label: average IC50; 0.5 nM PolQ ATPase enzyme (1-894)
# Description: PolQ ATPase enzyme (1-894) at 0.5 nM is incubated with a 10-point concentration response of inhibitors for 15 min at rt in the following buffer: 50 mM Tris Cl pH 7.5, 10% glycerol, 5 mM DTT, 10 mM MgCl2, 0.1 mg/ml BSA. […] Enzymatic reaction proceeds at rt for 180 min ATP consumption is measured using the ADP-Glo assay from Promega. Luminescence is read on the Envision and IC50 are determined using the variable slope 4-parameters equation. […]
quantity kind: IC50 (nM)

Sample records with IC50:
> print(dat)
                                   compound  measurement.units  measured.result
1  COc1cnc(C(F)F)cc1-c1cc(-c2cn(C)nc2F)ncc1C(=O)Nc1nnc(C#CC2CC2)s1                 nM             0.69
2  COc1cnc(C(F)F)cc1-c1cc(N2CC(C)(C)N(C)CC2=O)ncc1C(=O)Nc1nnc(C#CC2CC2)s1                 nM              2.1
3  COc1cnc(Cl)cc1-c1cc(Oc2nccs2)ccc1C(=O)Nc1nnc(C#CC2CC2)s1                 nM             0.35

A. COc1cnc(C(F)F)cc1-c1cc(N2C(=O)[C@@H]3CC[C@H]2C3)ncc1C(=O)Nc1nnc(C#CC2CC2)s1
B. COc1cnc(Cl)cc1-c1cn(CC(N)=O)c(=O)cc1C(=O)Nc1nnc(C#CC2CC2)s1
Looking at recorded values for IC50, does A or B come in lower? Please indicate the selected item by its label. B
(B: 0.47 nM, A: 7.1 nM)

a. COc1cnc(Cl)nc1-c1cn(C)c(=O)cc1C(=O)Nc1nnc(C#CC2CC2)s1
b. COc1cnc(C(F)F)cc1-c1cc(N2CCOCC2=O)ncc1C(=O)Nc1nnc(C#Cc2ccc(Cl)cc2)s1
Given a and b , report the one with the higher recorded IC50. Please indicate the selected item by its label. b

P. COc1ccc(C#N)cc1-c1cnccc1C(=O)Nc1nnc(C#CC2CC23CC3)s1 (stereo not drawn)
Q. C#C[C@H]1C[C@@H]1c1nnc(NC(=O)c2cnc(CC#N)cc2-c2cc(C(F)F)ncc2OC)s1
R. COc1ncc(C(F)(F)F)cc1-c1cnccc1C(=O)Nc1nnc(C#Cc2cc(C)[nH]n2)s1
S. COc1cnc(Cl)cc1-c1cc(N2CCCC2=O)ccc1C(=O)Nc1nnc(C#CC2CC2)s1
# ascending order, key=IC50 Please respond by ranking the labels in the order requested. S, P, R, Q
(S: 0.27 nM, P: 0.63 nM, R: 2.4 nM, Q: 5.8 nM)

A. COc1cnc(C(F)F)cc1-c1cc(CC#N)ncc1C(=O)Nc1nnc(C#CC2CC2)s1
B. COc1cnc(C(F)F)cc1-c1cc(-c2cnn(C3COC3)c2)ccc1C(=O)Nc1nnc(C#CC2CC2)s1
Given A and B , report the one with the higher recorded IC50. Please indicate the selected item by its label. A
(A: 0.61 nM, B: 0.39 nM)
